Test system: CYP2C8, CYP2C9, CYP2C19, CYP2D6, CYP3A4
Experiment: CYP inhibition in human liver microsomes, summary over isoforms
Type: in vitro ADME
Conditions: range over isoforms
assayReadout: IC50

Request: Returns the measured IC50 for the input molecule. Input: CN1CCN(c2ccc(OC(F)(F)F)c(Nc3ncc4c(n3)-c3c(c(C(N)=O)nn3CCO)CC4)c2)CC1 [onvansertib]
Result: 20 to 66 µM

====

Target: panel of 63 kinases other than PLK1
Test: kinase panel selectivity (63 kinases)
assayReadout: IC50

Request: Could you tell me which IC50 is on file for CN1CCN(c2ccc(OC(F)(F)F)c(Nc3ncc4c(n3)-c3c(c(C(N)=O)nn3CCO)CC4)c2)CC1 ?
Result: > 500 nM

The reported measurements were obtained from patent US20260076970A1.
